QUANTITY_MEASURED: melting point

MOL_SMILES: NC(=O)c1cnc(Nc2ccc(N3CCC(O)CC3)cc2)cc1NCc1cc(F)cc(F)c1
QUANTITY_MEASURED: melting point
VALUE_OBSERVED: 238 to 240 °C (dec.)
--
MOL_SMILES: NC(=O)c1cnc(Nc2ccc(N3CCCNCC3)cc2)cc1NCc1ccccc1
QUANTITY_MEASURED: melting point
VALUE_OBSERVED: 165 to 167 °C
--
MOL_SMILES: N#Cc1cc(Nc2cc(NCc3cc(F)cc(F)c3)c(C(N)=O)cn2)ccc1N1CCOCC1
QUANTITY_MEASURED: melting point
VALUE_OBSERVED: 213.5 to 214.1 °C (dec.)

For the next question, use this compound.
Enquiry: Identify measured melting point associated with `N#CCCCN1CCN(c2ccc(Nc3cc(NCc4cccc([N+](=O)[O-])c4)c(C(N)=O)cn3)cc2)CC1`
Return: 190 to 191 °C (dec.)

====

inhibition at 1 µM: recorded values
SUBJECT_OF_TEST: Recombinant human JAK3 enzyme (JAK3 kinase region; Ala795-Ser1124) (Homo sapiens)
Sequence (P52333 795-1124): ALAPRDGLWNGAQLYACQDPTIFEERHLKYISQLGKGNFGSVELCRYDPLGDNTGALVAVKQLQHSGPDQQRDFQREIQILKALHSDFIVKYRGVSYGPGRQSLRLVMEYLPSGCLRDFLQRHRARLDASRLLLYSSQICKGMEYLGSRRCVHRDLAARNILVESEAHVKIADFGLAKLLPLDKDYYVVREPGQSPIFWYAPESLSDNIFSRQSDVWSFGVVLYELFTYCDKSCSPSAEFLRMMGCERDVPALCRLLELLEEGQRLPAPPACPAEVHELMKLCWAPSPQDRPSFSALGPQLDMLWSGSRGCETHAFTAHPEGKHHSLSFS
METHOD_SUMMARY: JAK3 Kinase Assay (Kinase-Glo luminescent, ATP consumption)
EXPERIMENTAL_CONDITIONS: read-out: Inhibition rate (%) of JAK3 kinase activity
The figure you give is taken to be in %; do not add the unit.

Answered cases to consult:
COMPOUND: NC(=O)c1cnc(Nc2ccc(N3CCOCC3)cc2)cc1NCC1CC1
VALUE_OBSERVED: 40

COMPOUND: NC(=O)c1cnc(Nc2ccc(N3CCOCC3)cc2)cc1NCc1cccnc1
VALUE_OBSERVED: 65

COMPOUND: NC(=O)c1cnc(Nc2ccc(N3CCOCC3)cc2)cc1NC1CCOc2ccccc21 (centres unmarked)
VALUE_OBSERVED: 45

Enquiry: Identify measured inhibition at 1 µM associated with `NC(=O)c1cnc(Nc2ccc(N3CCOCC3)cc2)cc1NCC1CCCCC1`
Return: 83

Enquiry: Identify measured inhibition at 1 µM associated with CC(=O)N1CCCC1CNc1cc(Nc2ccc(N3CCOCC3)cc2)ncc1C(N)=O (centres unmarked)
Return: 57

Values from patent US8575153B2
